system: KB; experiment: Cytotoxicity against vincristine-resistant human KB cells assessed as growth inhibition after 72 hrs by MTT assay in presence of vincristine; assay type: functional, cell-based
Endpoint Name: IC50

Below: 3 compounds and their reported IC50.
INSERT INTO measurements (compound, endpoint_name, result) VALUES
  ('C/C=C1/CN(C)[C@H]2Cc3c([nH]c4ccccc34)[C@@H](c3cc4[nH]c5c(c4cc3OC)CCN3C[C@H]4C[C@H](CC)[C@H]3[C@H]5C4)C[C@H]1[C@]2(CO)C(=O)OC', 'IC50', '980 nM'),
  ('C/C=C1/C[N+]2(CCl)CC[C@]34C(=C(C=O)[C@H]1C[C@@H]32)Nc1ccccc14.[Cl-] (some centres undefined)', 'IC50', '> 25 µg/mL'),
  ('CC[C@H]1C[C@H]2C[C@H]3c4[nH]c5cc(C6CCC(=O)N6)c(OC)cc5c4CCN(C2)[C@@H]13 (some centres undefined)', 'IC50', '> 25 µg/mL');

Next item in the queue.
Input line: For the compound CC[C@]1(O)C[C@@H]2CC(=O)n3c4c(c5ccccc53)CCN(C1)[C@@H]42 , report IC50.
Output line: > 25 µg/mL

* * *

test system: KB; experiment: Cytotoxicity against vincristine-resistant human KB cells assessed as growth inhibition after 72 hrs by MTT assay in presence of vincristine; type: functional, cell-based
Endpoint Name: IC50 (nM)
Numeric answer only, unit nM assumed.

INSERT INTO results (compound, reading_unit, quantitative_readout) VALUES
  ('C/C=C1/CN2[C@H]3C[C@H]1C1(C(=O)OC)C[C@]4(C[C@@H]21)c1ccccc1N(C)[C@H]34 (stereo partly specified)', 'nM', 2620);

Input line: For the compound CC[C@H]1C[C@H]2C[C@@H]3[C@H]1N(C2)C[C@@H](O)[C@@]31Nc2ccc(OC)cc2C1=O , report IC50.
Output line: 53200

Input line: For the compound C/C=C1/CN(C)[C@H]2Cc3c([nH]c4ccccc34)[C@@H](c3cc4c(cc3OC)C(=O)[C@@]3(CCN5C[C@H]6C[C@H](CC)[C@H]5[C@H]3C6)N4)C[C@H]1[C@@H]2C(=O)OC , report IC50.
Output line: 1210

Input line: For the compound C/C=C1/CN(C)[C@H]2Cc3c([nH]c4ccccc34)[C@@H](c3cc4[nH]c5c(c4cc3OC)CCN3C[C@H]4C[C@H](CC)[C@H]3[C@H]5C4)C[C@H]1[C@@H]2C(=O)OC , report IC50.
Output line: 800

Input line: For the compound C/C=C1/CN[C@H]2Cc3c([nH]c4ccccc34)[C@@H](c3cc4[nH]c5c(c4cc3OC)CCN3C[C@H]4C[C@H](CC)[C@H]3[C@H]5C4)C[C@H]1[C@@H]2C(=O)OC , report IC50.
Output line: 1200

Origin of values: ChEMBL document CHEMBL3580573
